assay.system: recombinant human-MT1 receptor (Homo sapiens)
Construct: expressed in transfected cells; host or cells: unnamed cell line co-expressing mitochondrial apoaequorin and Gα16
Sequence (P48039 whole entry): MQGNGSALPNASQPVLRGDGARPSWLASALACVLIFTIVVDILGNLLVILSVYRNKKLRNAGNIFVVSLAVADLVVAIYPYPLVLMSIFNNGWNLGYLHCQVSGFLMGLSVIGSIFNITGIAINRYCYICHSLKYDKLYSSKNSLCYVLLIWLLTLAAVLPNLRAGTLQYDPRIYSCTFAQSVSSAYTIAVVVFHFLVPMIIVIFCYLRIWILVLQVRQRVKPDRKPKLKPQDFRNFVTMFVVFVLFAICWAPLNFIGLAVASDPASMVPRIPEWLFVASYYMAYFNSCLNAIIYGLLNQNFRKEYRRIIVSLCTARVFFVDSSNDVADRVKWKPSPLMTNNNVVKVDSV
assay.name: In vitro MT1 screening (AequoScreen aequorin luminescence, agonism)
Format: cell-based
assay.setup: 1 nM compound; percentage of activity relative to the reference agonist at the EC100 concentration
parameter: activation at 0.001 µM (%)

compound: CCCCC(=O)N[C@H]1CCN(c2ccc(F)c3c2CC(C)O3)C1 (stereo partly shown)
activation at 0.001 µM (%): 31

compound: CC(=O)N[C@H]1CCN(c2cccc3c2CC(C)O3)C1 (stereo partly shown)
activation at 0.001 µM (%): 17

compound: CCC(=O)N[C@H]1CCN(c2cccc3c2CC(C)O3)C1 (stereo partly shown)
activation at 0.001 µM (%): 18

compound: CCC1Cc2c(cccc2N2CC[C@H](NC(C)=O)C2)O1 (stereo partly shown)
activation at 0.001 µM (%): 23

* * *

assay.system: recombinant human-MT1 receptor (Homo sapiens)
Construct: expressed in transfected cells; host or cells: unnamed cell line co-expressing mitochondrial apoaequorin and Gα16
assay.name: In vitro MT1 screening (AequoScreen aequorin luminescence, agonism)
Type: cell-based
assay.setup: 100 nM compound; percentage of activity relative to the reference agonist at the EC100 concentration
parameter: activation at 0.1 µM (%)

// below: answered compounds
compound: CC(=O)N[C@H]1CCN(c2ccc(F)c3c2CC(C)O3)C1 (stereo partly shown)
unit.of.measurement: %
observed: 73
//
compound: CC1Cc2c(N3CC[C@H](NC(=O)C(F)(F)F)C3)ccc(F)c2O1 (stereo partly shown)
unit.of.measurement: %
observed: 79
//
compound: CCC(C)C(=O)N[C@H]1CCN(c2ccc(F)c3c2CC(C)O3)C1 (stereo partly shown)
unit.of.measurement: %
observed: 70

(1) CC1Cc2c(cccc2N2CC[C@H](NC(=O)C(F)(F)F)C2)O1 (stereo partly shown)
(2) CCC(=O)NCC[C@@H]1CCc2ccc3c(c21)CCO3 [Ramelteon, reference compound]
# min-compare on activation at 0.1 µM between 1 and 2 Please indicate the selected item by its label.
1
(1: 79%, 2: 118%)

* * *

assay.name: Plasma drug levels after oral administration
Assay type: in vivo
assay.setup: rat, plasma; 60 min after oral administration of 3 mg/kg, male Sprague-Dawley rats
parameter: concentration at 60 min (ng/mL)

// below: answered compounds
compound: CCC(=O)N[C@H]1CCN(c2cccc3c2CC(CC)O3)C1 (stereo partly drawn)
unit.of.measurement: ng/mL
concentration at 60 min: 59
//
compound: CC1Cc2c(cccc2N2CC[C@H](NC(=O)C3CC3)C2)O1 (stereo partly drawn)
unit.of.measurement: ng/mL
concentration at 60 min: 36
//
compound: CC(=O)N[C@H]1CCN(c2ccc(F)c3c2CC(C)O3)C1 (stereo partly drawn)
unit.of.measurement: ng/mL
concentration at 60 min: 55.4
//
compound: COc1ccc2[nH]cc(CCNC(C)=O)c2c1 [Melatonin, reference compound]
unit.of.measurement: ng/mL
concentration at 60 min: 73
//
compound: CCC(=O)NCC[C@@H]1CCc2ccc3c(c21)CCO3 [Ramelteon, reference compound]
unit.of.measurement: ng/mL
concentration at 60 min: 71

(I) CCC(=O)N[C@H]1CCN(c2ccc(F)c3c2CC(C)O3)C1 (stereo partly drawn)
(II) CC1Cc2c(N3CC[C@H](NC(=O)C4CC4)C3)ccc(F)c2O1 (stereo partly drawn)
(III) CC(=O)N[C@H]1CCN(c2cccc3c2CC(C)O3)C1 (stereo partly drawn)
(IV) CCCC1Cc2c(cccc2N2CC[C@H](NC(=O)CC)C2)O1 (stereo partly drawn)
Order the records by concentration at 60 min, with each subsequent value no larger than the one before. Note for the reader: the ranking is given by listing the labels in the order requested.
III, I, IV, II
